B1: HDAC6 (parent)
chain: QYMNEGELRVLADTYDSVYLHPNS

variants of: B1; assay: protein stability index of a GFP-peptide fusion (GPS, HEK-293T) (PSI 1-6); higher = more stable; conditions: c terminus: a fixed tail appended;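 note: lentivirally expressed fusions sorted by FACS into six bins by GFP to DsRed ratio, PSI derived from sequencing read proportions per bin multiplied by bin number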
Tick T if protein stability index is 2 or greater. Tick F if protein stability index is less than 2.

Sample answers from the record:
Task: Kindly determine if protein stability index recorded for E7V is above or exactly 2.
Result: F

Task: Kindly determine if protein stability index recorded for S24G is above or exactly 2.
Result: T

Task: Reported protein stability index at or above 2? E5M
Result: F

Task: Form field: protein stability index at least 2? Entry: G6H
Result: F

Task: Entry E5P : is its protein stability index no less than 2?
Result: T

Task: Could you please find out whether Y15E has protein stability index that meets 2 or exceeds it?
Result: T

Task: protein stability index >= 2 for N4K ?
Result: T

Task: Determine whether this variant has protein stability index no lower than 2: Y19W
Result: T

***
Task: Reported protein stability index at or above 2? V18S
Result: T

Task: Hi team, for L20V , is the recorded protein stability index at or above 2?
Result: T

Task: Confirm if protein stability index reported for the variant N23D is 2 or above.
Result: F

Task: Test whether the variant D16F records protein stability index of 2 or higher.
Result: T

Task: Item N23M with protein stability index of 2 or above?
Result: F

Task: Hi, just wondering whether G6E shows protein stability index of 2 or higher.
Result: T

Task: Can P22M be said to have protein stability index at or above 2?
Result: T

Task: Evaluate D16C : protein stability index at minimum 2?
Result: T

Task: Please check the record E7K and state if its protein stability index is at or above 2.
Result: F

Task: Textbook exercise: given the entry G6C , state whether its protein stability index is greater than or equal to 2.
Result: T

Task: Assess whether reported protein stability index for Y19N sits at 2 or higher.
Result: T

Reference source for all entries: the supplement of paper PMC10567573
